experiment: Prodrug conversion in human CEM/0 cell extract assessed as d4TDP formation by RP18-HPLC analysis; format: ADME, tissue-based; conditions: ccrf-cem
Reported metric: Drug metabolism

What value of Drug metabolism has been recorded for this entry: CCCCCCCCCCCCCCCCCC(=O)c1ccc(COP(=O)(OCc2ccc(OC(=O)CCCCCC)cc2)OP(=O)(O)OP(=O)(O)OC[C@@H]2C=C[C@H](n3cc(C)c(=O)[nH]c3=O)O2)cc1 (some centres undefined)
Metabolite_Detected

Also need CCCCCCCCCCCCCCCCCC(=O)Oc1ccc(COP(=O)(OCc2ccc(C(=O)CCCCCCCCCCCCCCCCC)cc2)OP(=O)(O)OP(=O)(O)OC[C@@H]2C=C[C@H](n3cc(C)c(=O)[nH]c3=O)O2)cc1 (some centres undefined) , thanks.
Metabolite_Detected

Also need CCCCCCCCCC(=O)c1ccc(COP(=O)(OCc2ccc(OC(=O)CCCC)cc2)OP(=O)(O)OP(=O)(O)OC[C@@H]2C=C[C@H](n3cc(C)c(=O)[nH]c3=O)O2)cc1 (some centres undefined) , thanks.
Metabolite_Detected

Also need CCCCCCCCCCCCCCCCCC(=O)Oc1ccc(COP(=O)(OCc2ccc(C(=O)CCCCCCCCC)cc2)OP(=O)(O)OP(=O)(O)OC[C@@H]2C=C[C@H](n3cc(C)c(=O)[nH]c3=O)O2)cc1 (some centres undefined) , thanks.
Metabolite_Detected

---

assay: Prodrug conversion in human CEM/0 cell extract assessed as gamma-kb-d4TTP formation by RP18-HPLC analysis; format: ADME, tissue-based; conditions: ccrf-cem
Reported metric: Drug metabolism

What value of Drug metabolism has been recorded for this entry: CCCCCCCCCCCCCCCCCC(=O)c1ccc(COP(=O)(OCc2ccc(OC(=O)CCCCCC)cc2)OP(=O)(O)OP(=O)(O)OC[C@@H]2C=C[C@H](n3cc(C)c(=O)[nH]c3=O)O2)cc1 (some centres undefined)
Metabolite_Detected

Also need CCCCCCCCCCCCCCCCCC(=O)Oc1ccc(COP(=O)(OCc2ccc(C(=O)CCCCCCCCCCCCCCCCC)cc2)OP(=O)(O)OP(=O)(O)OC[C@@H]2C=C[C@H](n3cc(C)c(=O)[nH]c3=O)O2)cc1 (some centres undefined) , thanks.
Metabolite_Detected

Also need CCCCCCCCCCCCCCCCCC(=O)Oc1ccc(COP(=O)(OCc2ccc(C(=O)CCCCCCCCC)cc2)OP(=O)(O)OP(=O)(O)OC[C@@H]2C=C[C@H](n3cc(C)c(=O)[nH]c3=O)O2)cc1 (some centres undefined) , thanks.
Metabolite_Detected

Also need CCCCCCCCCC(=O)c1ccc(COP(=O)(OCc2ccc(OC(=O)CCCC)cc2)OP(=O)(O)OP(=O)(O)OC[C@@H]2C=C[C@H](n3cc(C)c(=O)[nH]c3=O)O2)cc1 (some centres undefined) , thanks.
Metabolite_Detected

---

assay: Selectivity index, ratio of CC50 for cytotoxicity against human CEM/0 CD4+ T cells to EC50 for antiviral activity against HIV1 3B infected in human CEM/0 cells; assay type: toxicity, cell-based; settings: read-out: Ratio CC50/EC50
Reported metric: selectivity ratio
Lab note: write the figure by itself, no unit.

What value of selectivity ratio has been recorded for this entry: CCCCCCCCCC(=O)c1ccc(COP(=O)(O)OP(=O)(O)OP(=O)(O)OC[C@H]2O[C@@H](n3cnc4c(N)ncnc43)C[C@@H]2O)cc1
7
